# credit: patent US20250163127A1

Biological target: human PD-1 (human) (UniProt Q15116)
Sequence (Q15116 25-288): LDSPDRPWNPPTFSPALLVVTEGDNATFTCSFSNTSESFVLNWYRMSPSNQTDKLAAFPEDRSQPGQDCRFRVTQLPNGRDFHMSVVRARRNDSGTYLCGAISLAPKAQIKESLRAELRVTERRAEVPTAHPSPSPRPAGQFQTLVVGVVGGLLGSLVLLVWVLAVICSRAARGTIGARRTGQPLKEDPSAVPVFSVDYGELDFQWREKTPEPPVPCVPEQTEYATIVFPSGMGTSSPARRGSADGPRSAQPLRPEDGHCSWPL
Experimental Endpoint: IFN gamma levels pg/mL (MLR)

binder="variant PD-L2 IgV H15Q/R76G/I85F Fc fusion (Fc fusion) LFTVTVPKELYIIEQGSNVTLECNFDTGSHVNLGAITASLQKVENDTSPHRERATLLEEQLPLGKASFHIPQVQVGDEGQYQCIFIYGVAWDYKYLTLKVKA" reported_value="1730 pg/mL"
binder="variant PD-L2 IgV E44D/S67L/Q72H/Q82R/V89D Fc fusion (Fc fusion) LFTVTVPKELYIIEHGSNVTLECNFDTGSHVNLGAITASLQKVDNDTSPHRERATLLEEQLPLGKALFHIPHVQVRDEGQYRCIIIYGDAWDYKYLTLKVKA" reported_value="1280 pg/mL"
binder="variant PD-L2 IgV I13V/H15Q/T47A/R76G/V89D Fc fusion (Fc fusion) LFTVTVPKELYIVEQGSNVTLECNFDTGSHVNLGAITASLQKVENDASPHRERATLLEEQLPLGKASFHIPQVQVGDEGQYQCIIIYGDAWDYKYLTLKVKA" reported_value="1250 pg/mL"
binder="variant PD-L2 IgV I13V/H15Q/T47A/Q82R Fc fusion (Fc fusion) LFTVTVPKELYIVEQGSNVTLECNFDTGSHVNLGAITASLQKVENDASPHRERATLLEEQLPLGKASFHIPQVQVRDEGQYRCIIIYGVAWDYKYLTLKVKA" reported_value="1700 pg/mL"
